Assay: Photostability, percentage remaining undegraded under illumination or in the dark
Settings: percentage remaining undegraded in the dark, 24 h
recordedEndpoint: Photostability Dark (24 h) (%)
The answer is to be given in %; state only the numeric part.

> print(dat)
                                 itemsmiles            recordedendpoint  endpointvalue
1  Cc1cc2c(cc1C)C(=O)[C@]1(O)CCN(c3ccc4sc(C(C)C)nc4c3)C1=N2  Photostability Dark (24 h)           98.5

Please examine the following record next.
Field Photostability Dark (24 h) (entry Cc1ccc2c(c1)C(=O)[C@]1(O)CCN(c3ccc4nsnc4c3)C1=N2 ) reads 98.7
